# ASSAY_TARGET: P2X7 receptor (Homo sapiens, UniProt Q99572)
# Construct: host or cells: SH-SY5Y
# Sequence (Q99572 1-595): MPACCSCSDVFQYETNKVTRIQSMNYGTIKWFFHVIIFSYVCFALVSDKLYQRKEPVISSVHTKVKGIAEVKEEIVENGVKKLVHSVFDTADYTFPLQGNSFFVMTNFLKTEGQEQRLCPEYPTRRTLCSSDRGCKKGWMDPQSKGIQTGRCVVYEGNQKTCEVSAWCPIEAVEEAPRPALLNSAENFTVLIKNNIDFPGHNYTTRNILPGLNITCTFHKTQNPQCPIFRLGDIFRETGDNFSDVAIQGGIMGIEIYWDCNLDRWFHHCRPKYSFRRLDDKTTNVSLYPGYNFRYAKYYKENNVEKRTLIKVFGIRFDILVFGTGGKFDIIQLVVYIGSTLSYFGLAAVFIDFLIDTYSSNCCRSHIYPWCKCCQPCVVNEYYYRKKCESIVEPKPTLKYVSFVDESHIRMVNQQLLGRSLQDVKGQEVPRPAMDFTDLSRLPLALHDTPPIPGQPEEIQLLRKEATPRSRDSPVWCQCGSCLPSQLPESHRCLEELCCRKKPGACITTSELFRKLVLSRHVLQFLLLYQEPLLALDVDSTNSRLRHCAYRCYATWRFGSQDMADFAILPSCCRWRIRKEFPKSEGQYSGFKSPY
# ASSAY_INFO: P2X7 calcium mobilization assay, high throughput, antagonist activity (Example 4A)
# Type: cell-based
# MEASUREMENT_SETUP: 50% decrease in the fluorescence response of cells exposed to 80 μM 2′(3′)-O-(4-benzoyl-benzoyl)adenosine 5′-triphosphate; Example 4A; read-out: IC50
# Experimental: One day prior to the experiment, cells are plated at a density of 100,000 cells/well in a 96 well black/clear TC plate (Corning® Costar®, Sigma-Aldrich Co., St. Louis, Mo.). […] First, the average maximum relative fluorescent unit (RFU) response from the negative control wells (no agonist) is subtracted from the maximum response detected for each of the other experimental wells. Second, average maximum RFU response is calculated for the positive control wells (agonist wells).
Each entry below carries its reported IC50.

1) C[C@H]1CNCCN1C(=O)Cc1cn2c(C(=O)NC[C@@H]3CC[C@@H]4C[C@H]3C4(C)C)cccc2n1 [Compound 557]
< 2 µM
2) CCCN(C)C(=O)CNC(=O)c1cn2c(C(=O)NC[C@@H]3CC[C@H]4C[C@@H]3C4(C)C)cccc2n1 [Compound 505]
< 2 µM
3) CC1(C)[C@H]2CC[C@@H](CNC(=O)c3cccc4nc(C(=O)NCC5CC5)cn34)[C@@H]1C2 [Compound 497]
< 2 µM
4) CCOC(=O)C(C)(C)c1cn2c(C(=O)N(C)CC34CC5CC(CC(C5)C3)C4)cccc2n1 [Compound 451]
< 2 µM

Query: Requested field: IC50. Item: CCCN(C)C(=O)c1cn2c(C(=O)NC[C@@H]3CC[C@H]4C[C@@H]3C4(C)C)cccc2n1 [Compound 460]
Reply: < 2 µM

Query: Request: CCOC(=O)N1CCN(C(=O)c2cn3c(C(=O)NC[C@@H]4CC[C@H]5C[C@@H]4C5(C)C)cccc3n2)CC1 [Compound 452]
Reply: < 2 µM

Query: O=C(CC12CC3CC(CC(C3)C1)C2)Nc1cccc2nc(C(=O)N3CCC(O)CC3)cn12 [Compound 426] , same question.
Reply: < 2 µM

Query: Same lookup for CC(C)(CO)c1cn2c(C(=O)NCC34CC5CC(CC(C5)C3)C4)cccc2n1 [Compound 539] , please.
Reply: < 2 µM

Query: Can you check N#CCc1cn2c(C(=O)NCC34CC5CC(CC(C5)C3)C4)cccc2n1 [Compound 598] next?
Reply: < 2 µM

Query: Please do the same for C[C@H]1CN(C(=O)Cc2cn3c(C(=O)NC[C@@H]4CC[C@@H]5C[C@H]4C5(C)C)cccc3n2)CCN1 [Compound 563] as well.
Reply: < 2 µM

Query: What about this compound? CC1(C)C2CC[C@H](CNC(=O)c3cccc4nc(C(=O)N5CCC[C@@H](N)C5)cn34)C1C2 (relative stereo) [Compound 548]
Reply: < 2 µM

###

# ASSAY_TARGET: P2X7 receptor (Homo sapiens, UniProt Q99572)
# Construct: host or cells: SH-SY5Y
# Sequence (Q99572 1-595): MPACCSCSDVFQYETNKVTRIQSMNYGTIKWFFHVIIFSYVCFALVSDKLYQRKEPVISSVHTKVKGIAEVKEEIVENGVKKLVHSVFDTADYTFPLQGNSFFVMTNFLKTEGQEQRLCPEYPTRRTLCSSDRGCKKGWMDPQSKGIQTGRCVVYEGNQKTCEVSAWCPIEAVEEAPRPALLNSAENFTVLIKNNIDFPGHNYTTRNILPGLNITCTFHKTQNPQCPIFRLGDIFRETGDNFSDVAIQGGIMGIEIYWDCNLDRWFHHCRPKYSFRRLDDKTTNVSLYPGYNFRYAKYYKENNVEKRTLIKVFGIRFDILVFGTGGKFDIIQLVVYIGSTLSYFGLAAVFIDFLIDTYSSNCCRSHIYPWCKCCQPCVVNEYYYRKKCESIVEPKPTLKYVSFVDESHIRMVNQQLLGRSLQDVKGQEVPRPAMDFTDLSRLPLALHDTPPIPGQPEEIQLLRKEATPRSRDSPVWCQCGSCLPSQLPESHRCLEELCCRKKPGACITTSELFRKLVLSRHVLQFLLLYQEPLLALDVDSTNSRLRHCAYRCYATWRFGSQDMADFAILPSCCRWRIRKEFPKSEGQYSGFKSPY
# ASSAY_INFO: P2X7 calcium mobilization assay, high throughput, antagonist activity (Example 4A)
# Assay type: cell-based
# MEASUREMENT_SETUP: 50% decrease in the fluorescence response of cells exposed to 80 μM of 2′(3′)-O-(4-benzoyl-benzoyl)adenosine 5′-triphosphate; determined as in Example 4A; read-out: IC50
The following molecules are listed with their measured IC50 values.

Previously resolved entries follow.
1) CCOC(=O)C(Cc1ccccc1)c1cn2c(C(=O)NCC(CC(C)C)c3ccc(Cl)cc3)cccc2n1 (stereo not drawn) [Compound 931]
< 2000 nM
2) N[C@@H]1CCN(Cc2cn3c(C(=O)NCC4(c5ccc(Cl)cc5)CCOCC4)cccc3n2)C1 [Compound 910]
< 2000 nM

Note: attention shifts to another entry.
Query: May I ask what IC50 has been recorded for CCOC(=O)C(CCC(C)C)c1cn2c(C(=O)NCC34CC5CC(CC(C5)C3)C4)cccc2n1 (stereo not drawn) [Compound 907] ?
Reply: < 2000 nM

###

# ASSAY_TARGET: P2X7 receptor (Homo sapiens)
# Construct: host or cells: SH-SY5Y
# ASSAY_INFO: P2X7 calcium mobilization assay, high throughput, antagonist activity (Example 4A)
# Assay type: cell-based
# MEASUREMENT_SETUP: fluorescence response of cells exposed to 80 μM 2′(3′)-O-(4-benzoyl-benzoyl)adenosine 5′-triphosphate; Example 4A; read-out: IC50
MEASURED_PROPERTY: IC50

1. C=Cc1cn2c(C(=O)NCC34CC5CC(CC(C5)C3)C4)cccc2n1
< 2000 nM
2. CCCN(C)C(=O)Cc1cn2c(C(=O)NCC(CC(C)C)c3ccccc3)cccc2n1 (stereo not shown)
< 2000 nM
3. CC1(C)[C@H]2CC[C@@H](CNC(=O)c3cccc4nc(C(=O)N5C[C@H]6CC5CN6)cn34)[C@@H]1C2 (stereo in doubt)
< 2000 nM
4. O=C(NCC12CC3CC(CC(C3)C1)C2)c1cccc2nc(CN3CCOCC3)cn12
< 2000 nM
5. COC(=O)CN(C)C(=O)c1cn2c(NC(=O)CC34CC5CC(CC(C5)C3)C4)cccc2n1
< 2000 nM

Could you now look at the following compound, please?
Query: Give the measured IC50 of COCC1CCCCN1C(=O)Cc1cn2c(C(=O)NCC(CC(C)C)c3ccccc3)cccc2n1 (stereo not shown) .
Reply: < 2000 nM

###

# ASSAY_TARGET: P2X7 receptor (Homo sapiens)
# Construct: host or cells: SH-SY5Y
# Sequence (Q99572 1-595): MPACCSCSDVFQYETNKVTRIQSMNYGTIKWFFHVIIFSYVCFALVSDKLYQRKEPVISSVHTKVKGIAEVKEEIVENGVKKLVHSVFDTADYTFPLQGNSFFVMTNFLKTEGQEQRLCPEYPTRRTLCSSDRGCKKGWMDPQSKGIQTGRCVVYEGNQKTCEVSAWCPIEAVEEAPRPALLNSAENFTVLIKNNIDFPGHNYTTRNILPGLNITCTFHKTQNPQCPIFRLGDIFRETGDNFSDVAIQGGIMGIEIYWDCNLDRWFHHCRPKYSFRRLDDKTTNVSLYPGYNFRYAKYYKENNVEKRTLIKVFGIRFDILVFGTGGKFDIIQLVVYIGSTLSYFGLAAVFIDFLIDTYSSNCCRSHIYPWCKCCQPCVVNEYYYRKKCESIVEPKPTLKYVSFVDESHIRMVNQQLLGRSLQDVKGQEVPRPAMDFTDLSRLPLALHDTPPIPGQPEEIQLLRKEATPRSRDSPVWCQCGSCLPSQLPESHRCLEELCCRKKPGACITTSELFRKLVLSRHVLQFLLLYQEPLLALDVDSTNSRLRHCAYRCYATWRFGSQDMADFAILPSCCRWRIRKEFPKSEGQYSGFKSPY
# ASSAY_INFO: P2X7 calcium mobilization assay, high throughput, antagonist activity (Example 4A)
# Type: cell-based
# MEASUREMENT_SETUP: SH-SY5Y cells; 50% decrease in fluorescence response to 80 μM BzATP; read-out: IC50
# Protocol: One day prior to the experiment, cells are plated at a density of 100,000 cells/well in a 96 well black/clear TC plate (Corning® Costar®, Sigma-Aldrich Co., St. Louis, Mo.). […] First, the average maximum relative fluorescent unit (RFU) response from the negative control wells (no agonist) is subtracted from the maximum response detected for each of the other experimental wells. Second, average maximum RFU response is calculated for the positive control wells (agonist wells).
MEASURED_PROPERTY: IC50

A selection of reference data follows.
1. O=C(NCC12CC3CC(CC(C3)C1)C2)c1cccc2nc(CN3CC[C@@H](NCCO)C3)cn12 [Compound 198]
< 2000 nM
2. CN(CCO)C(=O)Cc1cn2c(C(=O)NCC34CC5CC(CC(C5)C3)C4)cccc2n1 [Compound 51]
< 2000 nM
3. O=C(NCC12CC3CC(CC(C3)C1)C2)c1cccc2nc(C(=O)N3CC(O)C3)cn12 [Compound 107]
< 2000 nM
4. CCN(C)C(=O)Cc1cn2c(C(=O)NCC34CC5CC(CC(C5)C3)C4)cccc2n1 [Compound 168]
< 2000 nM
5. COC1CCCN(C(=O)Cc2cn3c(C(=O)NCC45CC6CC(CC(C6)C4)C5)cccc3n2)C1 (centres unmarked) [Compound 47]
< 2000 nM

Query: Query for P2X7 receptor (Homo sapiens): what IC50 does the record show for O=C(Cc1cn2c(C(=O)NCC34CC5CC(CC(C5)C3)C4)cccc2n1)NC1CCC1 [Compound 151] ?
Reply: < 2000 nM

Query: Param item: O=C(NCC12CC3CC(CC(C3)C1)C2)c1cccc2nc(Cn3cnc(CO)c3)cn12 [Compound 199]
Reply: < 2000 nM

Query: Also CN(CCCC(C)(C)O)C(=O)Cc1cn2c(C(=O)NCC34CC5CC(CC(C5)C3)C4)cccc2n1 [Compound 59] , if possible.
Reply: < 2000 nM
